- assayName: amyloid nucleation score (Sup35N fusion, yeast selection) (log enrichment); library NNK2; higher = more nucleation; inactive = no reads after selection;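 note: zero at mode of non-aggregating sequences after 7 days selection at 30°C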
recordedEndpoint: amyloid nucleation score
// return just the number, without any unit appended

NDLYDSINEA: -0.885

Consider now this further sequence.
Q: Quick check: amyloid nucleation score of NTYVRSRHMAMSYCRMQMCL ?
Result: 0.141

* * *

- assayName: amyloid nucleation score (Sup35N fusion, yeast selection) (log enrichment); library NNK3; higher = more nucleation; inactive = no reads after selection
recordedEndpoint: amyloid nucleation score

Observe how each entry below is paired with its result.
MKQSDLGLKGRCDNCQFGRS: 0.092
VHSCLLCHWSFYWLLFFMRS: inactive
SGCCLDSLYLTIRLDCLRWR: inactive
IVREVGTA: inactive
INDLKGVVLNIWIKYIV: 0.602

Q: Fill in: amyloid nucleation score of SDIYWNGGLMYWICSMSVFI is ___
Result: 2.84

Q: Entry KGMDMVI : reported amyloid nucleation score = ?
Result: inactive

Q: Value lookup for amyloid nucleation score; key = SFSLNRRWFNIGS
Result: inactive

Q: Record request: amyloid nucleation score value, item NIDVYDLMRLSVFDNKMATG
Result: inactive

Q: Requested field: amyloid nucleation score. Item: FFNKREKDVFSNHRQYGYWN
Result: inactive

Q: Need amyloid nucleation score of RSCSLWVY , thanks.
Result: inactive

Q: Would you kindly share the measured amyloid nucleation score for RHGFWSVSFVSRQFSNILSC ?
Result: inactive

Q: Find the recorded amyloid nucleation score belonging to SDGDVMFLVKIEAGAFSGGM and report it.
Result: inactive

Q: Recorded amyloid nucleation score for SCEDLWNNMIAWMFATSRR , please?
Result: 1.26

Q: Need amyloid nucleation score of NYSRFGNKKFYHP , thanks.
Result: inactive

Q: Consider the substance shown here: WCFGYLHMNIV What is its recorded amyloid nucleation score?
Result: inactive

Q: What does the data say about its amyloid nucleation score? Entry: LEYAVVKSHQREESSSTCLG
Result: inactive

Q: Data request, read-out amyloid nucleation score, for CCVMHDE
Result: inactive

Q: # amyloid nucleation score lookup, item YYSWCRFTNDYSCCYRAFFA
Result: inactive

Q: Name the recorded amyloid nucleation score for PYNVSLFMLRMVSIFFVQHL .
Result: inactive

* * *

- assayName: amyloid nucleation score (Sup35N fusion, yeast selection) (log enrichment); library NNK1; higher = more nucleation; inactive = no reads after selection
recordedEndpoint: amyloid nucleation score
Enter the number alone.

SFCVRQSTVFLMMSWECFRY: 1.19
MNVVILEAYGRSPIGMQAFF: 2.59
RGNANIVEDSLFVVIGGRKV: 4.25

Q: Value lookup for amyloid nucleation score; key = ANFFICFLHLVCTKIQSSLL
Result: 1.77

Q: Look up amyloid nucleation score for this sequence: KFIIVLILDCITIHHSVVVS
Result: -0.819

Q: I would be grateful if you could share the reported amyloid nucleation score for SLYDLTDTAICFAFFYFD .
Result: 7.95

* * *

- assayName: amyloid nucleation score (Sup35N fusion, yeast selection) (log enrichment); library NNK2; higher = more nucleation; inactive = no reads after selection
The following sequences are listed with their measured amyloid nucleation score values.
Kindly provide the number alone.

For orientation, consider the following solved cases.
HMCHTVLHVSAGY: 0.246
VEWKRRNRVRVSRCELWFCF: 3.93
EVILTLIRYNV: 4.21
GLCMYGVTAKRMLVVWRERG: 8.8
YCKQNESVLDPSIDSLRVLP: 0.673

Q: Field request: amyloid nucleation score | item: IGLDRWLMSLRRYAMHK
Result: -0.089

Q: Item VNIVVILFIVADIKWRRF has what recorded amyloid nucleation score?
Result: 3.15

Q: Recorded amyloid nucleation score of AYMVEWEENHSESSVA , please.
Result: -0.383

Q: Quick one: amyloid nucleation score of VFIFLGLPLFPMITSIDLGY ?
Result: 2.28
